All values here come from ChEMBL document CHEMBL2176883.

- target under test: Cav1.2 (Homo sapiens, UniProt Q13936)
- Sequence (Q13936 whole entry): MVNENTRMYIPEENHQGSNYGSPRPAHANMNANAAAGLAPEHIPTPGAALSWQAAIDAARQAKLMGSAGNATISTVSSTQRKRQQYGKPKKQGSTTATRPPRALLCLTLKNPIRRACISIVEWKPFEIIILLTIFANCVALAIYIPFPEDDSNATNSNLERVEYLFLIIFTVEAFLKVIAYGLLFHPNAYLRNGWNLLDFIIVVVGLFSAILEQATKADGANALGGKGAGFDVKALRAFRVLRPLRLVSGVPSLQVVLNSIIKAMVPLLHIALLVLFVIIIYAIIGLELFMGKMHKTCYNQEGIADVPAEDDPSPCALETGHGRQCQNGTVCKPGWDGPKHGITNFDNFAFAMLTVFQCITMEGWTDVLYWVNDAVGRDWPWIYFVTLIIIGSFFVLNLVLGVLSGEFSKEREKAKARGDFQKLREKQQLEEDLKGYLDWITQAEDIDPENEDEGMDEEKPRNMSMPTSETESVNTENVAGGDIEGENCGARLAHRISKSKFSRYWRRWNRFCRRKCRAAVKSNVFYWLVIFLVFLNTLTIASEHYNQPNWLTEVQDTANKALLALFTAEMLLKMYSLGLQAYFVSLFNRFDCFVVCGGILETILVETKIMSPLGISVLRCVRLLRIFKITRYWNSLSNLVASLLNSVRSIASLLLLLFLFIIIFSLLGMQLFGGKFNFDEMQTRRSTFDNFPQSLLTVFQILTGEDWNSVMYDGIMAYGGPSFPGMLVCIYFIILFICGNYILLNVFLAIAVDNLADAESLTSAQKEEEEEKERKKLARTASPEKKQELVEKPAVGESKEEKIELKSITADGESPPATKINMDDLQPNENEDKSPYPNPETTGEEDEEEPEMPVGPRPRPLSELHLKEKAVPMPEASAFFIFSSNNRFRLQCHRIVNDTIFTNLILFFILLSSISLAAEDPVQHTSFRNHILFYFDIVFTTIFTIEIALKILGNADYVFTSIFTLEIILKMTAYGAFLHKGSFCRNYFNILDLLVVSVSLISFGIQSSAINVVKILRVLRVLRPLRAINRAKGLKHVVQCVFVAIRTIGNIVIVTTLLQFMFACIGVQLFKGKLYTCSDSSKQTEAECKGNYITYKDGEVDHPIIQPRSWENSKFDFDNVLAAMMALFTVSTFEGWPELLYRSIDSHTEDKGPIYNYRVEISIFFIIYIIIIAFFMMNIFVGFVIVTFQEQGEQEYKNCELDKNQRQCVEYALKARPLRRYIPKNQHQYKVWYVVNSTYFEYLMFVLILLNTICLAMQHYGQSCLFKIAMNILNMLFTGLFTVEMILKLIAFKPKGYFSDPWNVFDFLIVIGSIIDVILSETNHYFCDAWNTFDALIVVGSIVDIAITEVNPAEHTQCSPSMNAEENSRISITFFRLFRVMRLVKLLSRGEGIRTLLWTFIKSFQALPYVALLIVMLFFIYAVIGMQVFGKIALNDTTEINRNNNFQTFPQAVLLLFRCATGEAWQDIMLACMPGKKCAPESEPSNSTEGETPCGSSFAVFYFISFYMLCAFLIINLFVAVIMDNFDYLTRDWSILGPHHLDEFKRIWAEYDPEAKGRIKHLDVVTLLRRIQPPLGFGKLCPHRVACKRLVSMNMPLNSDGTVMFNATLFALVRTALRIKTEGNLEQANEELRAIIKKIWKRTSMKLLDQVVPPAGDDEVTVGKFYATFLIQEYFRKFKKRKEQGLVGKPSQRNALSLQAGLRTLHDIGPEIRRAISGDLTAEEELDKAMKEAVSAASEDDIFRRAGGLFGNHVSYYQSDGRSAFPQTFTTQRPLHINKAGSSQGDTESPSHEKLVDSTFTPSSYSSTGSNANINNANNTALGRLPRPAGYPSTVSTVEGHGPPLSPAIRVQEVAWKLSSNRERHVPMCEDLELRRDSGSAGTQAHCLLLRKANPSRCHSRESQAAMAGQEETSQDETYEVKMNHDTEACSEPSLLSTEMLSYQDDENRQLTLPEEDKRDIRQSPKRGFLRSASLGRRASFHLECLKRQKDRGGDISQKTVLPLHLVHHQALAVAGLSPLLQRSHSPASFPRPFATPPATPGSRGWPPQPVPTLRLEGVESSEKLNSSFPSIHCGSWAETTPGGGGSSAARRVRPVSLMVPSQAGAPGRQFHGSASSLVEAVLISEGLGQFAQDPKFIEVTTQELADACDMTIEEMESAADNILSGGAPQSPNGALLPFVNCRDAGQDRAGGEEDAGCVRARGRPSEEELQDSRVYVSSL
- assay overview: Inhibition of Cav1.2 assessed as inhibition of calcium flux at 1 uM by cell based FLIPR assay
reported property: inhibition at 1 µM (%)
Give just the numeric value; % need not be written.

Known inhibition at 1 µM results, listed for orientation:
chemical smiles	target under test	unit label	inhibition at 1 µM
CN(C)c1cccc(C(=O)N2CCC(N(C3CC3)S(=O)(=O)c3cccc(C(F)(F)F)c3)CC2)c1	Cav1.2 (Homo sapiens, UniProt Q13936)	%	40
CS(=O)(=O)c1ccccc1C(=O)N1CCC(N(C2CC2)S(=O)(=O)c2cccc(C(F)(F)F)c2)CC1	Cav1.2 (Homo sapiens, UniProt Q13936)	%	19

State its inhibition at 1 µM for this compound: NC(=O)c1ccc(C(=O)N2CCC(N(C3CC3)S(=O)(=O)c3cccc(C(F)(F)F)c3)CC2)cc1
0

State its inhibition at 1 µM for this compound: O=C(c1cccc(OC(F)(F)F)c1)N1CCC(N(C2CC2)S(=O)(=O)c2cccc(C(F)(F)F)c2)CC1
60

State its inhibition at 1 µM for this compound: O=C(c1ccc(OC(F)(F)F)cc1)N1CCC(N(C2CC2)S(=O)(=O)c2cccc(C(F)(F)F)c2)CC1
73

State its inhibition at 1 µM for this compound: CS(=O)(=O)c1ccc(F)cc1C(=O)N1CCC(N(C2CC2)S(=O)(=O)c2cccc(C(F)(F)F)c2)CC1
18
